Biological target: Lysine--tRNA ligase (Plasmodium falciparum (isolate 3D7)) (UniProt Q8IDJ8)
Sequence (Q8IDJ8 1-583): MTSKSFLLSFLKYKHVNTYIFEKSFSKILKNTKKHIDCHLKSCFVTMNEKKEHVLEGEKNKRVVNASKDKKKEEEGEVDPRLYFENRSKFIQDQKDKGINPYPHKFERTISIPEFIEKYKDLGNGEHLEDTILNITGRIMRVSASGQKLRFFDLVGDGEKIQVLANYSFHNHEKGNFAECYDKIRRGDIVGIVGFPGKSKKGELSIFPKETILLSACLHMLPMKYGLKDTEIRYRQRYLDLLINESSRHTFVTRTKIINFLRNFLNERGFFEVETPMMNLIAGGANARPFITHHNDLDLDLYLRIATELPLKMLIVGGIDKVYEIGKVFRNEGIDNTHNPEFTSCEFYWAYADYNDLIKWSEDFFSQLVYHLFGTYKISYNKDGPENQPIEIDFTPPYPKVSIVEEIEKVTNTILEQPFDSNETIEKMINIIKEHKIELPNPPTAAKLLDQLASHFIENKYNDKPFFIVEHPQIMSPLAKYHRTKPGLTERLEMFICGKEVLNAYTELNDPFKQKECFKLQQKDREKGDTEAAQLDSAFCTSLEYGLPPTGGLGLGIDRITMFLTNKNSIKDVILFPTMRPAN
Assay: Pf-KRS-1 (Lysyl-RNA Synthetase-1, KRS-1, cytosolic KRS) from Plasmodium falciparum. Inhibitor assay, 384 well plate, luminescence read.
Type: functional
Design: scale not given: in the data most compounds retested in dose-response had high values
Details: 30 µM
Hit rate of the full screen: of about 69,000 compounds, about 50 (0.07%) showed an effect of 50% or more. The full list was thinned out, with strong results kept by preference.
Below, each entry is listed alongside its reported Percent Effect.
Your answer should be a plain number; it is taken to be in %.

Illustrative cases are given below, each with its answer.
Fc1cnc(N2CCO[C@H]3CN(CC4CCC4)C[C@H]32)nc1: -1.14
Cc1cc(CN2C[C@@H]3CN(Cc4ccsc4)CCO[C@@H]3C2)no1: 3.95
Cc1noc([C@H]2CC[C@@H]3[C@@H](CCN3S(C)(=O)=O)O2)n1: 4.83
Cc1noc([C@]23COC[C@H]2CN(C(C)C)C3)n1: 2.71
COc1cccc(C2CC(=O)Nc3nc(N4CCOCC4)sc32)c1OC (stereo unspecified): 77.8
Cn1nc2c(cc1=O)CN(Cc1nc(-c3cccnc3)no1)CC2: -1.07

Prompt: Request: Percent Effect, test system Lysine--tRNA ligase (Plasmodium falciparum (isolate 3D7)) (UniProt Q8IDJ8), entry O=C1CO[C@@H]2CN(Cc3nccs3)C[C@H]2N1Cc1ccncc1
Completion: 3.56

Prompt: Request: Percent Effect, test system Lysine--tRNA ligase (Plasmodium falciparum (isolate 3D7)) (UniProt Q8IDJ8), entry Cc1ccc(S(=O)(=O)N2C[C@@H]3C[C@@H](NC(=O)C(C)(C)C)[C@@H]3C2)cc1
Completion: 6.48

Prompt: Request: Percent Effect, test system Lysine--tRNA ligase (Plasmodium falciparum (isolate 3D7)) (UniProt Q8IDJ8), entry Cc1cccc(C(=O)N2CC[C@H]3C[C@@H](C)O[C@@H]3C2)n1
Completion: 1.1

Prompt: Request: Percent Effect, test system Lysine--tRNA ligase (Plasmodium falciparum (isolate 3D7)) (UniProt Q8IDJ8), entry CCO[C@@H]1CC[C@H]2[C@H]1OCCN2Cc1ccoc1
Completion: 2.1

Prompt: Request: Percent Effect, test system Lysine--tRNA ligase (Plasmodium falciparum (isolate 3D7)) (UniProt Q8IDJ8), entry CNC(=O)N1CC[C@H]2N(C)CC[C@@]2(C(=O)N2CCOCC2)CC1
Completion: 5.59
